Let's look at some binders and their measured HEK-Blue activity, No BP, DF-1,000,000.
Molecular target: T1, IL-18 receptors on HEK-Blue IL-18 reporter cells (UniProt Q13478 19-541; O95256 20-599, limits assumed); also: unit not given here
T1 sequence (looked up) 1: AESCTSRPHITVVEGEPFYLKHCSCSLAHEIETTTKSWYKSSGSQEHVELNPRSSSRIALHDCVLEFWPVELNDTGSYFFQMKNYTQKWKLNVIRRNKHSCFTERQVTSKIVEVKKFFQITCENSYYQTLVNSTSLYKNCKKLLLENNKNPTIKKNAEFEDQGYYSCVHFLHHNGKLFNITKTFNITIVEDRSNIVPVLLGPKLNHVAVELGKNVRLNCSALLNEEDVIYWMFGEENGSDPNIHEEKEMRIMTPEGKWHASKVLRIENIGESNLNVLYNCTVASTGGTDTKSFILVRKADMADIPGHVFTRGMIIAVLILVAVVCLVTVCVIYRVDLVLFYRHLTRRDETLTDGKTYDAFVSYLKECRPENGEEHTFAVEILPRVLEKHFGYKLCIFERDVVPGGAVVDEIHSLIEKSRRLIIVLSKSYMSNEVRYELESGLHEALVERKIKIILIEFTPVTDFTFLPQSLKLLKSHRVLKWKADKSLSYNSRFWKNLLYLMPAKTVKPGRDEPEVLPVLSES
T1 sequence (looked up) 2: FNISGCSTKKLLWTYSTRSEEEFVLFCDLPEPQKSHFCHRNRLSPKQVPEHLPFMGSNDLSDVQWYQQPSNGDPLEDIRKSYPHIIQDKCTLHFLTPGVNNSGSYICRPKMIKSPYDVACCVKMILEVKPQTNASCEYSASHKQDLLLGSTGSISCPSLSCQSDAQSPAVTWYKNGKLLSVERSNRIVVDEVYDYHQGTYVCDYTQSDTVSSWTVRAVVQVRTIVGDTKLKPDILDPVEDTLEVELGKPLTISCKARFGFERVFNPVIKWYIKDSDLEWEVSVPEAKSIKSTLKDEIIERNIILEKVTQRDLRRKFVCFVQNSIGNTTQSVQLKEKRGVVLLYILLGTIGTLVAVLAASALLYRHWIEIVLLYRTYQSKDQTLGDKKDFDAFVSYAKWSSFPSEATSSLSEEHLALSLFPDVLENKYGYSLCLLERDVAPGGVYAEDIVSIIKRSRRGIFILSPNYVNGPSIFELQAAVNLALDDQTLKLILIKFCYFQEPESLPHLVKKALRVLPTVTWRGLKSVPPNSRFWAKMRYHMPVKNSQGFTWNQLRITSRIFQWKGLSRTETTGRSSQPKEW
Experiment: cell-based or functional assay
Reply with the value as a number alone.

Observe how each entry below is paired with its result.
>  <binder>
IL-18 variant L15I, K53H, S55M (ligand) YFGKLESKLSVIRNINDQVLFIDQGNRPLFEDMTDSDMRDNAPRTIFIISMYHDMQPRGMAVTISVKSEKISTLSSENKIISFKEMNPPDNIKDTKSDIIFFQRSVPGHDNKMQFESSSYEGYFLASEKERDLFKLILKKEDELGDRSIMFTVQNED

>  <HEK-Blue activity, No BP, DF-1,000,000>
0.09

$$$$
>  <binder>
IL-18 variant K53N, S55Y (ligand) YFGKLESKLSVIRNLNDQVLFIDQGNRPLFEDMTDSDMRDNAPRTIFIISMYNDYQPRGMAVTISVKSEKISTLSSENKIISFKEMNPPDNIKDTKSDIIFFQRSVPGHDNKMQFESSSYEGYFLASEKERDLFKLILKKEDELGDRSIMFTVQNED

>  <HEK-Blue activity, No BP, DF-1,000,000>
0.08

$$$$
>  <binder>
IL-18 variant K53N, S55A, R104N, P107A, H109Y (ligand) YFGKLESKLSVIRNLNDQVLFIDQGNRPLFEDMTDSDMRDNAPRTIFIISMYNDAQPRGMAVTISVKSEKISTLSSENKIISFKEMNPPDNIKDTKSDIIFFQNSVAGYDNKMQFESSSYEGYFLASEKERDLFKLILKKEDELGDRSIMFTVQNED

>  <HEK-Blue activity, No BP, DF-1,000,000>
0.13

$$$$
>  <binder>
IL-18 variant D23G, K53Y, S55Y (ligand) YFGKLESKLSVIRNLNDQVLFIGQGNRPLFEDMTDSDMRDNAPRTIFIISMYYDYQPRGMAVTISVKSEKISTLSSENKIISFKEMNPPDNIKDTKSDIIFFQRSVPGHDNKMQFESSSYEGYFLASEKERDLFKLILKKEDELGDRSIMFTVQNED

>  <HEK-Blue activity, No BP, DF-1,000,000>
0.11

$$$$
>  <binder>
IL-18 variant S36E, D37E, D40V, N41S, K53Y, S55V, H109Y (ligand) YFGKLESKLSVIRNLNDQVLFIDQGNRPLFEDMTDEEMRVSAPRTIFIISMYYDVQPRGMAVTISVKSEKISTLSSENKIISFKEMNPPDNIKDTKSDIIFFQRSVPGYDNKMQFESSSYEGYFLASEKERDLFKLILKKEDELGDRSIMFTVQNED

>  <HEK-Blue activity, No BP, DF-1,000,000>
0.09

$$$$
>  <binder>
IL-18 variant K53T, S55G, P107A, H109Q (ligand) YFGKLESKLSVIRNLNDQVLFIDQGNRPLFEDMTDSDMRDNAPRTIFIISMYTDGQPRGMAVTISVKSEKISTLSSENKIISFKEMNPPDNIKDTKSDIIFFQRSVAGQDNKMQFESSSYEGYFLASEKERDLFKLILKKEDELGDRSIMFTVQNED

>  <HEK-Blue activity, No BP, DF-1,000,000>
0.11

$$$$

Now for the binder whose HEK-Blue activity, No BP, DF-1,000,000 we want.
Query: State its HEK-Blue activity, No BP, DF-1,000,000: IL-18 variant T34S, S36Y, D37N, D40E, N41Q, K53Y, S55I (ligand) YFGKLESKLSVIRNLNDQVLFIDQGNRPLFEDMSDYNMREQAPRTIFIISMYYDIQPRGMAVTISVKSEKISTLSSENKIISFKEMNPPDNIKDTKSDIIFFQRSVPGHDNKMQFESSSYEGYFLASEKERDLFKLILKKEDELGDRSIMFTVQNED
Response: 0.09
